Origin of values: ChEMBL document CHEMBL5241089

- Experimental System: Stromelysin-2 (Homo sapiens, UniProt P09238)
- Sequence (P09238 whole entry): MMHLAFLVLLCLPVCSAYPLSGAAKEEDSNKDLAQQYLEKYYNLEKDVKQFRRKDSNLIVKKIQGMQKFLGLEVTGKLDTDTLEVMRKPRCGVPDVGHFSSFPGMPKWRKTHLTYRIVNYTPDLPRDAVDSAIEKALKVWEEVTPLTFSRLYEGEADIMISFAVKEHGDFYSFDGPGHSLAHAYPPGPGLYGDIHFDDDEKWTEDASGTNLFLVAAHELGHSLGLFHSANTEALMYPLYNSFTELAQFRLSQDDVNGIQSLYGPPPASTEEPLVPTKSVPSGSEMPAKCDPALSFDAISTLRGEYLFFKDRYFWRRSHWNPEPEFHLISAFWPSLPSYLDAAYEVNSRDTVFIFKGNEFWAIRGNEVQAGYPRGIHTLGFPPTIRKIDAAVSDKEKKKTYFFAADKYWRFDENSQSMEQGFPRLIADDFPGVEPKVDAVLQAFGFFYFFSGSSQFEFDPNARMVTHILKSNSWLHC
- Measurement Protocol: Inhibition of MMP10 (unknown origin) using FRET peptide
Quantity Name: IC50 (nM)
# number only, unit nM dropped from output

Lookup: What value of IC50 has been reported for the following compound? `O=C(O)CCCCCCCCOc1ccc(CC(=O)Nc2ccc3c(c2)C(=O)N(Cc2ccccc2)C3=O)cc1`
Found: 1200

---

- Experimental System: Stromelysin-2 (Homo sapiens)
- Measurement Protocol: Inhibition of MMP-10 (unknown origin)
Quantity Name: pIC50
In plain terms, pIC50 is the concentration in mol/L turned into minus its base-10 logarithm.

Lookup: pIC50 for `CC(=O)N1c2nc(C)cc(=O)n2[C@H](c2ccc(Br)cc2)N1C(C)=O` ?
Found: 7.62
